Readings of IC50 for the listed compounds
biological target: c-Met (Homo sapiens); construct: Kinases are expressed as either kinase domains or full length constructs; made in house; test: Kinase inhibition assay (33P transfer), c-Met; format: biochemical; settings: Table 2, kinase inhibition class; read-out: Met-1

Consider the following illustrative entries.
COc1cc(Nc2ncnc(Nc3nc4ccc(F)cc4s3)n2)cc(OC)c1OC :: 0.934 to 5.6 µM
COc1ccc(Nc2ncnc(Nc3cc(OC)c(OC)c(OC)c3)n2)cc1O :: > 11.3 µM
CCOC(=O)N1CCC(Nc2ncnc(N3CCCc4cc(C)ccc43)n2)CC1 :: > 11.3 µM
O=C(O)Cc1ccc(Nc2ncnc(Nc3cc(-c4ccco4)n[nH]3)n2)cc1 :: 1.06 to 6.36 µM
Cc1cccc(Nc2ncnc(N(C)c3cccc(Cl)c3)n2)c1 :: 1.23 to 7.37 µM
COC(=O)n1c(=O)n(-c2ncnc(Nc3cc(OC)c(OC)c(OC)c3)n2)c2ccccc21 :: > 9.95 µM
COC(=O)c1ccc(-c2cc(Nc3ncnc(Nc4ccc(CO)cc4)n3)[nH]n2)cc1 :: 8.38 to 10.8 µM
O=c1[nH]c2ccccc2n1-c1ncnc(Nc2ccc(-c3cnco3)cc2)n1 :: > 12.1 µM
COc1cc(Nc2ncnc(Nc3cccc(CC(=O)O)c3)n2)cc(OC)c1OC :: > 10.9 µM
C=CCN(c1ccc(Cl)cc1)c1ncnc(Nc2cc(OC)c(OC)c(OC)c2)n1 :: 0.935 to 5.61 µM

**Q:** Form field: reported IC50 of COc1cc(Nc2ncnc(-c3ccc(NCCCN)nc3)n2)cc(OC)c1OC
**A:** > 10.9 µM

---

target: IGFR-1 (Homo sapiens, UniProt P08069); construct: Kinases are expressed as either kinase domains or full length constructs; made in house; experiment: Kinase inhibition assay (33P transfer), IGFR-1; assay type: biochemical; conditions: Table 2, class symbols A-E
Sequence (P08069 31-1367): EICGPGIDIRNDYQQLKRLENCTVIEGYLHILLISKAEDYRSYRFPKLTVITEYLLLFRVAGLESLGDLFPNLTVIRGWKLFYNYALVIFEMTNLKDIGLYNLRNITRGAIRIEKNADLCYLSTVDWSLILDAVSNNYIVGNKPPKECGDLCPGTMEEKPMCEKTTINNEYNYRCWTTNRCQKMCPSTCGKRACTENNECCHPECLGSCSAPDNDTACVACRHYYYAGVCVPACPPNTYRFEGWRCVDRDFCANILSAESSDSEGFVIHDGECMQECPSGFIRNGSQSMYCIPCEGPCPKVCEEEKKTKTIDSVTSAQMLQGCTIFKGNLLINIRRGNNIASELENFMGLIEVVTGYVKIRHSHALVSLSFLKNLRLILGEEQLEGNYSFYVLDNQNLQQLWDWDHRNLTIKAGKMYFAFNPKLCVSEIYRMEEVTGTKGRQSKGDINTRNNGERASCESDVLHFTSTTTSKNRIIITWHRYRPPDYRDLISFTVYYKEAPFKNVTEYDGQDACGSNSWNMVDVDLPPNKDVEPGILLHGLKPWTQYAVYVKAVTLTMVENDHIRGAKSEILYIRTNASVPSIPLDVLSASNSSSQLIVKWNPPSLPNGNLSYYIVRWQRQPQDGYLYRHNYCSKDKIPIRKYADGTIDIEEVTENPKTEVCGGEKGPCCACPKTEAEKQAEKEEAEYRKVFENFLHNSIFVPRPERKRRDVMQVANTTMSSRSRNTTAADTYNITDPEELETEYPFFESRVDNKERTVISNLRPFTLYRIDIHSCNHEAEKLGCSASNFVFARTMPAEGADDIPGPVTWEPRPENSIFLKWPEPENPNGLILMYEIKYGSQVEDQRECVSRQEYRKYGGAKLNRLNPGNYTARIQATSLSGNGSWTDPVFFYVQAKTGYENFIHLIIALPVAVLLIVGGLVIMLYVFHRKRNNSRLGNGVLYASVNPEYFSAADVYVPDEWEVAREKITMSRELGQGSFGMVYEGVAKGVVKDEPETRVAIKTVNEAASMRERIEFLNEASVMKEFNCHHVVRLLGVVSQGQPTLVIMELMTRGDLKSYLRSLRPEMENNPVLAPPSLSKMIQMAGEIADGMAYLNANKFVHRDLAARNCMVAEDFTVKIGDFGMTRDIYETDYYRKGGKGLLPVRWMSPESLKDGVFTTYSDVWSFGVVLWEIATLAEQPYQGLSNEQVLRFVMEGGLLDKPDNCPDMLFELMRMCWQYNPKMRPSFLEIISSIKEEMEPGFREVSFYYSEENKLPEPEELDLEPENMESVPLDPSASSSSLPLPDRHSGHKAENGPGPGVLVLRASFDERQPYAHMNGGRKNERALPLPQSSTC
experimental.readout: IC50

COC(=O)c1ccc(-c2cc(Nc3ncnc(Nc4cc(F)cc(F)c4)n3)[nH]n2)cc1 :: 8.27 to 10.6 µM
Nc1nc2ccccc2n1-c1ncnc(Nc2cccc(Cn3ccnn3)c2)n1 :: < 1.04 µM

**Q:** Reported IC50 for IGFR-1 (Homo sapiens, UniProt P08069), given c1ccc(Nc2ncccc2-c2ncnc(Nc3ccc4[nH]ncc4c3)n2)cc1 ?
**A:** > 11.8 µM

**Q:** For O=C(O)CCNC(=O)c1ccc(Nc2ncnc(Nc3cc(-c4ccco4)[nH]n3)n2)cc1 then?
**A:** 0.921 to 5.52 µM

**Q:** For COc1ccc(Nc2ncnc(NCC(=O)c3ccccc3)n2)cc1OC then?
**A:** > 12.3 µM

**Q:** For Cc1cccc(Nc2ncnc(N(C)c3ccc4c(cnn4Cc4ccccc4)c3)n2)c1 then?
**A:** > 10.7 µM

**Q:** For c1cc(Nc2ncnc(Nc3cc(-c4ccco4)[nH]n3)n2)cc(-c2cnco2)c1 then?
**A:** < 1.04 µM

---

molecular target: Kdr (Homo sapiens); construct: Kinases are expressed as either kinase domains or full length constructs; made in house; experiment: Kinase inhibition assay (33P transfer), Kdr; format: biochemical; details: read-out: KDR-1
Sequence (P35968 20-1356, species assumed): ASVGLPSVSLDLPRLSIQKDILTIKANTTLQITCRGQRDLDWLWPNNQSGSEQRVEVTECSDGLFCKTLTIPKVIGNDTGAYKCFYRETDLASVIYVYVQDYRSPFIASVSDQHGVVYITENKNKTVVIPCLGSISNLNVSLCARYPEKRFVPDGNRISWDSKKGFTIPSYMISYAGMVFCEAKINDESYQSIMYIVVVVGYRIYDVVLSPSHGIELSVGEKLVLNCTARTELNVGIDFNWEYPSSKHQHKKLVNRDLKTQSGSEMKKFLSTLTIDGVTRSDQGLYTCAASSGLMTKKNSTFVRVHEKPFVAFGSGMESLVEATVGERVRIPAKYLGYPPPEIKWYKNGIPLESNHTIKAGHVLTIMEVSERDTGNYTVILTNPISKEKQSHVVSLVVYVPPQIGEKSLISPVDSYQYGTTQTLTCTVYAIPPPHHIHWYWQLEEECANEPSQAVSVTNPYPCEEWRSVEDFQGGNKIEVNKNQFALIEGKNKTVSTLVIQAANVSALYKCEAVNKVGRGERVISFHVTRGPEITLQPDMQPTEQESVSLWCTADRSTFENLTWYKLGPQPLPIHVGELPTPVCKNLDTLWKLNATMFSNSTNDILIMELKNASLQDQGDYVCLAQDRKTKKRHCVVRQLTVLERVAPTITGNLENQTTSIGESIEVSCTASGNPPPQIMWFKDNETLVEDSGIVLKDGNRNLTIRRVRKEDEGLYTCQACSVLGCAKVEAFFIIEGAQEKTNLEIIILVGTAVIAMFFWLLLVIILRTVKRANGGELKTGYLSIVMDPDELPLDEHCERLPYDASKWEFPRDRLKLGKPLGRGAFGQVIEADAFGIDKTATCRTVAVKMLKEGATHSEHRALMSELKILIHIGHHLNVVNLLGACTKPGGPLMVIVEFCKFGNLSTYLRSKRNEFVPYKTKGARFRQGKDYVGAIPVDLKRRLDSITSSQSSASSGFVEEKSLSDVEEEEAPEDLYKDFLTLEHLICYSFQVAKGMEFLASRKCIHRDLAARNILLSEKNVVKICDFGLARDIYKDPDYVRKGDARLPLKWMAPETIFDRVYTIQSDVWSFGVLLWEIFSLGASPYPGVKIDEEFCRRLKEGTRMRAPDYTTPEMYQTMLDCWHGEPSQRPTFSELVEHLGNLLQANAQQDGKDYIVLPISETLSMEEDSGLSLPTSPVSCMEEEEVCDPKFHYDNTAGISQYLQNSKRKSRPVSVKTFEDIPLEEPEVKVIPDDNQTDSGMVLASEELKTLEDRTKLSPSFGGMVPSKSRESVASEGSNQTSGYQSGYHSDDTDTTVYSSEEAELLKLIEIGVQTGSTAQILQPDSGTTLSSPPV
pIC50: −log10 of the molar value.
experimental.readout: pIC50

Consider the following illustrative entries.
COc1cc(Nc2ncnc(-c3cccnc3NC(C)C)n2)cc(OC)c1OC :: > 6.00
NC(=O)Cc1cccc(Nc2ncnc(Nc3cc(-c4ccccc4)n[nH]3)n2)c1 :: > 5.98
c1ccc(Cn2ncc3cc(Nc4ncnc(Nc5cc(-c6ccccc6)[nH]n5)n4)ccc32)cc1 :: 5.28 to 6.06
CCN(CC)CCOc1cc(Nc2ncnc(-n3c(N)nc4ccccc43)n2)ccc1OC :: 5.27 to 6.05
O=c1[nH]c2ccccc2n1-c1ncnc(Nc2ccc(Br)c(Cl)c2)n1 :: 5.24 to 6.02
COc1cc(Nc2ncnc(Nc3cc(Cl)ccc3C)n2)cc(OC)c1OC :: 5.22 to 6.00
COc1ccc(Nc2ncnc(N3CCCc4ccc(C)cc43)n2)cc1OC :: > 5.97
COc1cc(Nc2ncnc(Nc3cccc(CC(=O)O)c3)n2)cc(OC)c1OC :: 5.07 to 5.23
COc1cc(Nc2ncnc(-n3c(NCCc4ccccn4)nc4ccccc43)n2)cc(OC)c1OC :: > 6.10

Next:
**Q:** Form field: reported pIC50 of COc1cc(Nc2ncnc(-n3c(Nc4ccc(N(C)C)cc4)nc4ccccc43)n2)cc(OC)c1OC
**A:** > 6.11

---

target: Lck (Homo sapiens); construct: Kinases are expressed as either kinase domains or full length constructs; made in house; assay: Kinase inhibition assay (33P transfer), Lck; assay type: biochemical; settings: read-out: Lck-1
Sequence (P06239 whole entry, species assumed, the tested form may be a part): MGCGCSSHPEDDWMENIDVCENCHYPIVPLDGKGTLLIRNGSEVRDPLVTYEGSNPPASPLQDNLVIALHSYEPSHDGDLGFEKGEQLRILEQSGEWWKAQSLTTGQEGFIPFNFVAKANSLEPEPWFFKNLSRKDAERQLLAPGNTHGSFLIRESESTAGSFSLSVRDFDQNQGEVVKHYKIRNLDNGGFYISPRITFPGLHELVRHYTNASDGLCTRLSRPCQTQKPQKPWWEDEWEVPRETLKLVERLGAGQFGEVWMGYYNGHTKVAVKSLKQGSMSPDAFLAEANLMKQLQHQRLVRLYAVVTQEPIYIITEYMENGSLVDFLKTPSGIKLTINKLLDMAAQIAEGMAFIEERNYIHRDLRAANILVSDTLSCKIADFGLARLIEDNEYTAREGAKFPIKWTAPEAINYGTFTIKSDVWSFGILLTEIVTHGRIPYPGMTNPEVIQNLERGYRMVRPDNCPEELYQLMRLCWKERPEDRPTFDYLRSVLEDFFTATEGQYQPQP
experimental.readout: IC50

Consider the following illustrative entries.
COc1ccc([C@H](C)Nc2nc3ccccc3n2-c2ncnc(Nc3cc(OC)c(OC)c(OC)c3)n2)cc1 :: > 8.53 µM
COc1cc(Nc2ncnc(-n3c(NCc4ccc(Cl)cc4C)nc4ccccc43)n2)cc(OC)c1OC :: 0.752 to 4.51 µM
CN1CCN(Cc2cccc(Nc3ncnc(Nc4cccc5ccccc45)n3)c2)CC1 :: > 10.6 µM
CN(c1cccc(Cl)c1)c1ncnc(Nc2ccc(F)c(Cl)c2)n1 :: > 12.4 µM
COc1cc(Nc2ncnc(Nc3ccc4c(c3)CCC4)n2)cc(OC)c1OC :: < 1.02 µM

**Q:** Form field: reported IC50 of COc1cc(Nc2ncnc(Nc3cc(-c4ccc(C(=O)NCCc5ccccc5)cc4)n[nH]3)n2)cc(OC)c1OC
**A:** 0.706 to 4.24 µM

---

Readings of IC50 for the listed compounds
biological target: Itk (Homo sapiens); construct: Kinases are expressed as either kinase domains or full length constructs; made in house; experiment: Kinase inhibition assay (33P transfer), Itk; format: biochemical; conditions: read-out: Itk-1
Sequence (Q08881 whole entry, species assumed, the tested form may be a part): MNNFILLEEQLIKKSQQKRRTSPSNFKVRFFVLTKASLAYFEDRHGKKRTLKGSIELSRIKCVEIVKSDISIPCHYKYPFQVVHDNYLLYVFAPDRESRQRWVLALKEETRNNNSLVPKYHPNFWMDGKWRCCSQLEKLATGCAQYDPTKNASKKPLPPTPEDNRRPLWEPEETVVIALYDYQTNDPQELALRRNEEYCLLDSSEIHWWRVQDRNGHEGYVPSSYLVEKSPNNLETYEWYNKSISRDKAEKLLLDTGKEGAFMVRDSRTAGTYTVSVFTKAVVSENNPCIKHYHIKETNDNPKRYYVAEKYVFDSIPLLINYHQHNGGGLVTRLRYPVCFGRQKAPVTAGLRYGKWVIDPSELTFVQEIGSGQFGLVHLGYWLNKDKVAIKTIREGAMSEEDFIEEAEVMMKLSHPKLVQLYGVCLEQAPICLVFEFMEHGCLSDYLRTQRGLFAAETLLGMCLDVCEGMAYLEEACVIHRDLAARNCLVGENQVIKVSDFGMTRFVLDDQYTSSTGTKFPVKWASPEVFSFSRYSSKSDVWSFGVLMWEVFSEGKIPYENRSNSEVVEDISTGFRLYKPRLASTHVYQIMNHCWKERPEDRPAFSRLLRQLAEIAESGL

Consider the following illustrative entries.
Nc1nc2ccccc2n1-c1ncnc(Nc2cccc(CC(=O)NCc3ccccn3)c2)n1 :: 0.886 to 5.32 µM
c1ccc(Cn2ncc3cc(Nc4ncnc(Nc5ccc(N6CCOCC6)cc5)n4)ccc32)cc1 :: 5.02 to 7.31 µM

**Q:** Form field: reported IC50 of COc1cc(Nc2ncnc(Nc3ncnc4[nH]cnc34)n2)cc(OC)c1OC
**A:** > 11.4 µM

---

molecular target: AKT (Homo sapiens); construct: Kinases are expressed as either kinase domains or full length constructs; made in house; assay: Kinase inhibition assay (33P transfer), AKT; type: biochemical; settings: Table 2, kinase inhibition class; read-out: AKT3-1
Sequence (Q9Y243 whole entry, the tested form may be a part): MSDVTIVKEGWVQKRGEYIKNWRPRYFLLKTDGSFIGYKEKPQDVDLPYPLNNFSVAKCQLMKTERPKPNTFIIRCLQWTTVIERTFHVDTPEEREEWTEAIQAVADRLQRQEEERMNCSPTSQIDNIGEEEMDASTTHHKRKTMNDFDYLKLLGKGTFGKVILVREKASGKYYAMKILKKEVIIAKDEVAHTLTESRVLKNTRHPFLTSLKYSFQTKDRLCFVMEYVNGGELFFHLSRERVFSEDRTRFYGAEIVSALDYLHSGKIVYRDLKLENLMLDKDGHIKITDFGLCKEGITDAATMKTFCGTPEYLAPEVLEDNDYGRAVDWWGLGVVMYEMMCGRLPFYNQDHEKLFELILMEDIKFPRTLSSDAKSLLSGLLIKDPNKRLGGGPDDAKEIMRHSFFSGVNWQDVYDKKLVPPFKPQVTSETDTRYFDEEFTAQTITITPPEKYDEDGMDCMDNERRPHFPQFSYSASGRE
pIC50: −log10 of the molar value.
experimental.readout: pIC50

Consider the following illustrative entries.
NC(=O)c1cccc(Nc2ncnc(Nc3cc(-c4ccco4)n[nH]3)n2)c1 [Compound 342] :: < 4.91
COc1cc(Nc2ncnc(-n3c(NCc4cccc(Br)c4)nc4ccccc43)n2)cc(OC)c1OC [Compound 946] :: < 5.10
COc1cc(Nc2ncnc(-c3cccnc3NCCN3CCCCC3)n2)cc(OC)c1OC [Compound 1079] :: < 5.01

**Q:** Form field: reported pIC50 of CN(c1cccc(Cl)c1)c1ncnc(Nc2cccc(CC(=O)O)c2)n1 [Compound 706]
**A:** < 4.91

**Q:** For Nc1nc2ccccc2n1-c1ncnc(Nc2ccc(Cl)cc2)n1 [Compound 478] then?
**A:** 5.15 to 5.93

**Q:** For COc1cc(Nc2ncnc(Nc3cc(-c4ccco4)n[nH]3)n2)cc(OC)c1 [Compound 365] then?
**A:** 5.04 to 5.20

**Q:** For COc1cc(Nc2ncnc(Nc3cccc(Oc4ccccc4)c3)n2)cc(OC)c1OC [Compound 105] then?
**A:** < 5.00

**Q:** For COc1cc(C)c(Nc2ncnc(-n3c(N)nc4ccccc43)n2)cc1OC [Compound 524] then?
**A:** < 4.92

**Q:** For O=C(O)Cc1cccc(Nc2ncnc(-n3c(NCc4ccccn4)nc4ccccc43)n2)c1 [Compound 533] then?
**A:** < 5.00

**Q:** For COc1cc(Nc2ncnc(Nc3cc(C(F)(F)F)ccc3F)n2)cc(OC)c1OC [Compound 618] then?
**A:** 4.99 to 5.10

---

Readings of IC50 for the listed molecules
target: EGFR (Homo sapiens, UniProt P00533); construct: Kinases are expressed as either kinase domains or full length constructs; made in house; experiment: Kinase inhibition assay (33P transfer), EGFR; assay type: biochemical; conditions: Table 2, class symbols A-E; read-out: EGFR-1

Consider the following illustrative entries.
COc1ccc(Nc2ncnc(N(C)c3ccc(F)cc3F)n2)cc1OC [Compound 801] :: < 1.07 µM
C#Cc1cccc(Nc2ncnc(Nc3cc(-c4ccccc4)n[nH]3)n2)c1 [Compound 1008] :: 1.13 to 6.79 µM
COc1cc(Nc2ncnc(-c3cccnc3NCC(C)c3ccccc3)n2)cc(OC)c1OC (stereo not drawn) [Compound 890] :: > 9.52 µM

**Q:** Form field: reported IC50 of O=C(O)CCc1cccc(Nc2ncnc(Nc3cc(-c4ccco4)[nH]n3)n2)c1 [Compound 887]
**A:** < 1.02 µM

**Q:** For COc1cc(Nc2ncnc(-c3cccnc3Nc3ccc4c(c3)CCC4)n2)cc(OC)c1OC [Compound 830] then?
**A:** > 9.56 µM
